# Test system: Acinetobacter baumannii ATCC 19606
METRIC: MIC

Please look up its MIC: Nc1nc(/C(=N/OC2(C(=O)O)CCC(F)(Cl)CC2)C(=O)N[C@H]2CON(C3(C(=O)O)C[C@H](N4C(=O)c5cc(O)c(O)cc5C4=O)C(=O)O3)C2=O)cs1 (some centres unmarked)
0.25 µg/mL

Next molecule up: Nc1nc(/C(=N/OC2(C(=O)O)CCC(Cl)(Cl)CC2)C(=O)N[C@H]2CON(C3(C(=O)O)C[C@H](N4C(=O)c5cc(O)c(O)cc5C4=O)C(=O)O3)C2=O)cs1 (some centres unmarked)
0.25 µg/mL

Next molecule up: CC(C)(O/N=C(\C(=O)N[C@H]1CON(C2(C(=O)O)C[C@@H](N3C(=O)c4cc(O)c(O)cc4C3=O)C(=O)O2)C1=O)c1csc(N)n1)C(=O)O (some centres unmarked)
0.12 µg/mL

Next molecule up: Nc1nc(/C(=N/OC2(C(=O)O)COC2)C(=O)N[C@H]2CON(C3(C(=O)O)C[C@H](N4C(=O)c5cc(O)c(O)cc5C4=O)C(=O)O3)C2=O)cs1 (some centres unmarked)
0.12 µg/mL

Next molecule up: Nc1nc(/C(=N/OC(CO)(CCl)C(=O)O)C(=O)N[C@H]2CON(C3(C(=O)O)C[C@H](N4C(=O)c5cc(O)c(O)cc5C4=O)C(=O)O3)C2=O)cs1 (some centres unmarked)
0.12 µg/mL
